Test system: Plasmodium falciparum
Test: Confirmatory screen in NF54 pLDH assay, in single point, at 2uM, 72h
Format: functional, Erythrocyte
Conditions: timepoint 72 hour
Screen size: about 4,800 compounds; about 410 (8.5%) showed an effect of 50% or more. Only a selection was taken, and strong results are over-represented in it overall.
Here, each record is paired with measured % Inhibition data.

>  <compound>
Cc1[nH]ccc1C(=O)N1CC[C@]2(CCN(C(=O)OC(C)(C)C)C2)C1

>  <% Inhibition [%]>
13

$$$$
>  <compound>
Cc1cc(C)nc(N[C@H](c2ccc(F)cc2)c2cc(C)sc2NC(=O)c2ccccc2)n1

>  <% Inhibition [%]>
6

$$$$
>  <compound>
O=C(c1cccc(COc2ccc(Br)cc2)c1)N1CCN(Cc2ccccc2)CC1

>  <% Inhibition [%]>
-14

$$$$
>  <compound>
COc1ccc(-c2cc(C(=O)Nc3ncc[nH]3)n[nH]2)cc1OC

>  <% Inhibition [%]>
22

$$$$
>  <compound>
COc1ccc([C@H](NC(=O)CCc2ccccc2)c2c(O)ccc3ccccc23)cc1

>  <% Inhibition [%]>
-6

$$$$
>  <compound>
CC(C)(C)NC(=O)C1CCN(C[C@@H]2CC=CCC2)CC1

>  <% Inhibition [%]>
10

$$$$
>  <compound>
O=C(Nc1nc(CCc2c[nH]c3ccccc23)n[nH]1)c1cccnc1

>  <% Inhibition [%]>
12

$$$$
>  <compound>
C[C@H](NC(=O)c1cocn1)c1ccccc1NC(=O)c1cocn1

>  <% Inhibition [%]>
-7

$$$$
>  <compound>
COc1ccccc1CNC(=O)c1cnn2c3c(cnc12)CCCC3

>  <% Inhibition [%]>
-2

$$$$
>  <compound>
Cc1ccc(C)c(-c2nc(Cn3c(=O)c4c(C)cc(C)nc4n(C)c3=O)c(C)o2)c1

>  <% Inhibition [%]>
3

$$$$
>  <compound>
CC[C@H]1CN2C=NC(N3CCN(C(=O)Cc4ccccc4)CC3)=CC2=N1

>  <% Inhibition [%]>
25

$$$$
>  <compound>
COc1ccccc1C(=O)NC1=NN2C(=NC(c3ccc(Cl)cc3)=C[C@H]2c2ccc(Cl)cc2)N1

>  <% Inhibition [%]>
92

$$$$
>  <compound>
CCC1=NN2C(=NC(C(=O)O)=C[C@H]2c2ccc(O)cc2)N1

>  <% Inhibition [%]>
-3

$$$$
>  <compound>
CNC(=NCC(C)(C)c1ccc(OC)cc1)NC

>  <% Inhibition [%]>
7

$$$$
>  <compound>
COc1ccc([C@@H]2C=C(c3ccc(Cl)cc3)N=C3NC(NC(=O)c4ccccc4OC)=NN32)cc1

>  <% Inhibition [%]>
89

$$$$
>  <compound>
CC(=O)c1ccc(N2CCN(C(=O)c3nn[nH]c3Nc3ccc(C)c(C)c3)CC2)cc1

>  <% Inhibition [%]>
8

$$$$
>  <compound>
Cc1cccc(NC(=O)c2cc(Cl)c[nH]2)n1

>  <% Inhibition [%]>
6

$$$$
>  <compound>
COc1cc(NC(=O)c2cc(-c3cccc4ccccc34)[nH]n2)cc(OC)c1OC

>  <% Inhibition [%]>
10

$$$$
>  <compound>
Cc1noc(C)c1NC(=O)CCS(=O)(=O)c1ccc2ccccc2c1

>  <% Inhibition [%]>
4

$$$$
>  <compound>
COc1cc(NC(=O)c2ccccc2Cl)cc(S(=O)(=O)c2ccc(Cl)cc2)c1

>  <% Inhibition [%]>
-15

$$$$
>  <compound>
O=C(Nc1ccc(N2CCOCC2)c(F)c1)OCc1ccccc1

>  <% Inhibition [%]>
2

$$$$
>  <compound>
CCN1CCN(c2nc(O)c3c(n2)NC(=O)C[C@H]3c2cccc(F)c2)CC1

>  <% Inhibition [%]>
-7

$$$$
>  <compound>
Cc1ccc(-c2csc(NC(=O)c3cccc(C(=O)Nc4nc(-c5ccc(C)cc5C)cs4)n3)n2)c(C)c1

>  <% Inhibition [%]>
-7

$$$$
>  <compound>
Clc1ccc2c(c1)CC[C@@H]2NCc1nnc2n1CCC2

>  <% Inhibition [%]>
3

$$$$
>  <compound>
COC(=O)[C@H](C)N(C(=O)CO)c1c(C)cccc1C

>  <% Inhibition [%]>
10

$$$$
>  <compound>
COc1ccc(CN(C)[C@H]2CCc3nn(C)c(=O)n3CC2)c(Cl)c1OC

>  <% Inhibition [%]>
1

$$$$
>  <compound>
COc1cc(C=C(C(=O)Nc2ccccc2F)C(=O)Nc2ccccc2F)ccc1OCC(=O)Nc1cccc(C(F)(F)F)c1

>  <% Inhibition [%]>
-18

$$$$
>  <compound>
CCCOC(=O)c1cc(NC(=O)c2ccc3ccccc3c2)ccc1N1CCOCC1

>  <% Inhibition [%]>
-11

$$$$
>  <compound>
Fc1ccc(C2=C[C@@H](c3ccc(Cl)cc3)N3N=C(c4ccc(Cl)cc4)NC3=N2)cc1

>  <% Inhibition [%]>
97

$$$$
>  <compound>
O=C(Nc1ccsc1C(=O)NCc1cc(F)cc(F)c1)c1cnccn1

>  <% Inhibition [%]>
13

$$$$
>  <compound>
COc1cc(N2CCn3c(nc4cc(Cl)ccc43)C2)ccc1NC(=O)c1ccccc1OC

>  <% Inhibition [%]>
-10

$$$$
>  <compound>
Cc1ccc(C(N)C(C)S(C)(=O)=O)cc1 (configuration not stated)

>  <% Inhibition [%]>
-18

$$$$
>  <compound>
CCN(C)C1(CNC(=O)c2ccc(-c3cc(F)ccc3O)cc2)CCCC1

>  <% Inhibition [%]>
11

$$$$
>  <compound>
COc1ccc(CCNC(=O)CCCC(=O)NCc2ccccc2)cc1OC

>  <% Inhibition [%]>
-14

$$$$
>  <compound>
CCCNC(=O)C[C@H](C)CC(=O)NCCc1ccc(OC)c(OC)c1

>  <% Inhibition [%]>
14

$$$$
>  <compound>
Cc1cc(C)cc(-n2cc(C(=O)NCCCc3ccccc3)nn2)c1

>  <% Inhibition [%]>
8

$$$$
>  <compound>
CCCCn1c(N)c(N(Cc2ccccc2OC)C(=O)c2ccoc2C)c(=O)[nH]c1=O

>  <% Inhibition [%]>
-22

$$$$
>  <compound>
C[C@H](Oc1ccc(F)cc1)C(=O)N1CCC(c2nc3cc(Cl)ccc3s2)CC1

>  <% Inhibition [%]>
-1

$$$$
>  <compound>
Cc1c(F)cccc1NC(=O)N1CCN(C2=CC3=N[C@@H](C)CN3C=N2)CC1

>  <% Inhibition [%]>
54

$$$$
>  <compound>
COc1ccc2cccc(NC(=O)c3cc(-c4cc(OC)c(OC)c(OC)c4)n[nH]3)c2n1

>  <% Inhibition [%]>
51

$$$$
>  <compound>
Cc1cc(F)c(C(=O)Nc2nc(-c3cnn(C)c3)cs2)cc1F

>  <% Inhibition [%]>
-4

$$$$
>  <compound>
CC[C@H]1CN2C=NC(N3CCN(C(=O)Nc4cc(F)cc(F)c4)CC3)=CC2=N1

>  <% Inhibition [%]>
46

$$$$
